Entries and their self-cleavage values follow.
B1: HDV Ribozyme (parent)
chain: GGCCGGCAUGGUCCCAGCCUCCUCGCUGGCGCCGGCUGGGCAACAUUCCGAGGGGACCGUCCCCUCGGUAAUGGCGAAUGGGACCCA

Variants of: B1
test_details: self-cleavage, relative activity (ratio to wild type); higher = more cleavage; co-transcriptional
The response must contain the number and no unit.

>  <mutant_name>
C15G A56U

>  <assay_metric>
self-cleavage

>  <measurement>
0.914

$$$$
>  <mutant_name>
U12A C19G

>  <assay_metric>
self-cleavage

>  <measurement>
0

$$$$
>  <mutant_name>
U12C U72G

>  <assay_metric>
self-cleavage

>  <measurement>
0.128

$$$$
>  <mutant_name>
U9G A45G

>  <assay_metric>
self-cleavage

>  <measurement>
0.684

$$$$
>  <mutant_name>
A51C C58G

>  <assay_metric>
self-cleavage

>  <measurement>
1.02

$$$$

Query :: Item C26G C58A : provide self-cleavage
Result :: 1.06

Query :: Could you please provide reported self-cleavage for C61A C62A ? Thanks!
Result :: 0.904

Query :: Give the reported self-cleavage for this variant. A45C C86A
Result :: 0.95

Query :: Supply self-cleavage value. Item: G52C C64A
Result :: 0.753

Query :: Input A56C U69C , output reported self-cleavage.
Result :: 1.09

Query :: Quick one: give measured self-cleavage for U60G A77C
Result :: 0.227

Query :: Identify the reported self-cleavage for the following entry. G11U C61A
Result :: 0.355

Query :: Note self-cleavage for the variant shown: C61U C84U
Result :: 0.636
